assay: gradient 5% acetonitrile 3 min, to 50% in 2 min, to 85% in 15 min, held 3 min, 100 µL/min; details: column: Zorbax Extend-C18 2.1 x 50 mm; eluents: water / acetonitrile, 0.1% formic acid
property_label: RP-LC retention time (s)

# molecule, property_label, observed
records = [
    ("O=C(C1CCC1)N1CCc2sc(S(=O)(=O)NCc3ccccc3)cc2C1", "RP-LC retention time", 847),
    ("Cc1nc2cc(-c3noc(CNC(=O)Cc4ccc(Cl)cc4)n3)ccc2n(C2CCCC2)c1=O", "RP-LC retention time", 1020),
    ("COc1ccc(-c2nc(-c3ccc4c(c3)oc(=O)n4C(C)C)no2)c(OC)c1", "RP-LC retention time", 1080),
    ("CCC(C)N(CC(=O)N(Cc1ccco1)CC1CCCO1)C(=O)c1ccccc1OC (stereo not given)", "RP-LC retention time", 805),
    ("CCn1c(=O)c(C)nc2cc(-c3noc(-c4cc(OC)c(OC)c(OC)c4)n3)ccc21", "RP-LC retention time", 919),
]

###

assay: gradient 5% acetonitrile 3 min, to 50% in 2 min, to 85% in 15 min, held 3 min, 100 µL/min; settings: column: Zorbax Extend-C18 2.1 x 50 mm; eluents: water / acetonitrile, 0.1% formic acid
property_label: RP-LC retention time (s)

# compound, RP-LC retention time [s]
data = [
    ("O=C1NCCCn2cc(S(=O)(=O)NCc3ccccc3Cl)cc21", 686),
]

P = COc1cccc(CCC(=O)N2CCN(c3nc(CN4CCC(C)CC4)cs3)CC2)c1
Q = Cc1ccc(-n2ccnc(NC(=O)Nc3ccc(F)cc3)c2=O)cc1C
*Q* Of P and Q , which carries the smaller reported RP-LC retention time figure? // caller expects the label of the chosen entry
*A* P

###

experiment: gradient 5% acetonitrile 3 min, to 50% in 2 min, to 85% in 15 min, held 3 min, 100 µL/min; details: column: Zorbax Extend-C18 2.1 x 50 mm; eluents: water / acetonitrile, 0.1% formic acid
property_label: RP-LC retention time (s)

Solved entries (count: 7):
# compound, unit_string, RP-LC retention time
data = [
    ("COc1cccc(C(O)CN2CCN(c3ccccc3)CC2)c1 (centres undefined)", "s", 634),
    ("O=C(c1ccc(Br)o1)N1CCc2nc(-c3ccc(Cl)cc3)ncc2C1", "s", 1100),
    ("O=S(=O)(c1ccc(-c2nnc(C3CC3)o2)o1)N1CCN(C2CCCCC2)CC1", "s", 642),
    ("O=S(=O)(c1ccc(-c2noc(-c3cccc(F)c3)n2)cc1)N1CCOCC1", "s", 1090),
    ("CN(C)c1ccc(/C=C/C(=O)c2cc(Cl)ccc2O)cc1", "s", 1120),
    ("CCOc1ccc(NC(=O)c2[nH]c(C)c(S(=O)(=O)N3CCCCC3)c2C)cc1", "s", 979),
    ("CCN1CCCn2cc(S(=O)(=O)NCc3cccc(C)c3)cc2C1=O", "s", 780),
]

1 = O=c1c2sccc2n(Cc2nc(-c3ccc(F)cc3)no2)c(=O)n1-c1ccc(F)cc1
2 = O=S(=O)(c1ccc2c(c1)-c1oncc1CO2)N1CCN(C2CCCCC2)CC1
*Q* I need your help: which of the pair 1 , 2 has higher RP-LC retention time? // caller expects the label of the chosen entry
*A* 1
